Readings of inhibition for the listed compounds
- test-method-notes: inhibitors of TNFa-induced NFkB p65 translocation, primary screen, imaging, HUVEC, MLSMR starter and 10KST1 sets (AID 438);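 note: compound added about 3h40 before a 20 min TNFalpha stimulation; signal is the nuclear over cytoplasmic p65 intensity ratio per well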
- recorded-conditions: HUVEC TNFa-induced p65 nuclear translocation; at 2 µM, stronger effect = higher value, 0% TNFa-plus-vehicle, 100% no-TNFa wells
quantity-name: inhibition (%)

[[record]]
compound = "Cc1cc(NC(=O)CSc2nc3c(c(-c4cccnc4)c2C#N)CCC3)no1"
quantity_name = "inhibition"
observed_result = -2.9

[[record]]
compound = "CC1CCN(S(=O)(=O)c2ccc(Br)s2)CC1"
quantity_name = "inhibition"
observed_result = 13

[[record]]
compound = "CC(=O)NC(C)C(=O)OCc1ccc(Cl)cc1Cl (stereo unspecified)"
quantity_name = "inhibition"
observed_result = -21.6

[[record]]
compound = "CCCSc1nc2c(c(=O)[nH]c(=O)n2C)n1CCc1ccccc1"
quantity_name = "inhibition"
observed_result = 11.9

[[record]]
compound = "CCN(CC)S(=O)(=O)c1ccc2c(c1)nc(SCn1nnc3ccccc3c1=O)n2CC"
quantity_name = "inhibition"
observed_result = 6

[[record]]
compound = "N#Cc1nc(COc2ccccc2)oc1NCCN1CCOCC1"
quantity_name = "inhibition"
observed_result = 1.6

[[record]]
compound = "COc1ccccc1C(=O)NCC(c1cccnc1)N(C)C (stereo unspecified)"
quantity_name = "inhibition"
observed_result = -2.2

[[record]]
compound = "COC(=O)c1[nH]c2ccc(C)cc2c1NC(=O)CN1CCCC(C)(C)C1"
quantity_name = "inhibition"
observed_result = 7.3

[[record]]
compound = "Cc1ccc(N2C(N)=NC(N)=NC23CCCC3)c(C)c1"
quantity_name = "inhibition"
observed_result = -5.9

[[record]]
compound = "Cc1ccc(CS(=O)(=O)Cc2ccc(C(=O)NCc3ccccn3)o2)cc1"
quantity_name = "inhibition"
observed_result = 6

[[record]]
compound = "CCOC(=O)c1oc2ccccc2c1CSc1nnnn1-c1ccc(OC)cc1"
quantity_name = "inhibition"
observed_result = -7.7


###

- test-method-notes: endothelial E-selectin expression blockers – imaging, HUVEC, immunofluorescence, MLSMR starter and 10KST1 sets, primary screen (AID 487);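 note: 100% = median nuclei count of all wells on the same plate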
- recorded-conditions: HUVEC TNFalpha-induced E-selectin immunofluorescence imaging, at 2 µM; measured here: cell number, toxicity
Readings of nuclei count for the listed molecules
quantity-name: nuclei count (%)

[[record]]
molecule = "CCOc1ccc(NS(=O)(=O)c2cc(Cl)ccc2OC)cc1"
observed_result = 129

[[record]]
molecule = "CSc1nnc(-c2cnccn2)n1Cc1ccccc1"
observed_result = 121

[[record]]
molecule = "Cc1noc(/C=C/N(C)C)c1S(=O)(=O)N1CCCC(C(=O)N2CCCCC2)C1 (stereo unspecified)"
observed_result = 117

[[record]]
molecule = "CCOC(=O)c1ccccc1NC(=O)COC(=O)C1=COCCO1"
observed_result = 95.5

[[record]]
molecule = "Cc1c(NS(=O)(=O)c2ccc3c(c2)c(=O)n(C)c(=O)n3C)c(=O)n(-c2ccccc2)n1C"
observed_result = 115

[[record]]
molecule = "CC1=Nn2c(nnc2-c2cc(-c3ccccc3)n[nH]2)SC1"
observed_result = 87.4

[[record]]
molecule = "Cc1cccc(-n2nnnc2SCc2csc(-c3ccccc3)n2)c1"
observed_result = 127

[[record]]
molecule = "CC(=O)Nc1nc2c(c3c1c(=O)oc1ccccc13)CC(C)CC2 (stereo unspecified)"
observed_result = 82.7

[[record]]
molecule = "CCOC(=O)Cc1csc(NC(=O)CSc2nnc(C3CC3)n2C)n1"
observed_result = 102

[[record]]
molecule = "O=C(COc1ccc(S(=O)(=O)NC2CCCCC2)cc1)NCc1ccccn1"
observed_result = 107

[[record]]
molecule = "O=C(CCCN1C(=O)c2ccccc2C1=O)Oc1ccc(F)cc1"
observed_result = 96.8

